src = patent US9723838B2

System: army worm
Experiment: Test against army worm (corn leaf spraying)
Type: in vivo
Conditions: 72 h
property.name: mortality at 5 ppm (%)
Only the number, expressed in %, is required.

Use the examples below as a reference point.
> print(dat)
                                   molecule       property.name  assay.result
1  CC(C)(NC(=O)c1cc(Cl)cc(Cl)c1NC(=O)c1cc(Cl)nn1-c1ncccc1Cl)C(N)=O  mortality at 5 ppm          81.2
2  CC(NC(=O)c1cc(F)cc(Cl)c1NC(=O)c1cc(Br)nn1-c1ncccc1Cl)C(N)=O (centres unmarked) [KC2, reference compound]  mortality at 5 ppm          16.7
3  CC(C)(NC(=O)c1cc(Cl)cc(Cl)c1NC(=O)c1cc(Br)nn1-c1ncccc1Cl)C(N)=O  mortality at 5 ppm          86.6
4  CC(NC(=O)c1cc(Br)cc(Br)c1NC(=O)c1cc(Br)nn1-c1ncccc1Cl)C(N)=O (centres unmarked) [KC1, reference compound]  mortality at 5 ppm             0

Field: next molecule
## Task Which mortality at 5 ppm reading was recorded for the molecule `CC(C)(NC(=O)c1cc(Br)cc(Br)c1NC(=O)c1cc(Br)nn1-c1ncccc1Cl)C(N)=O` ?
## Result 87.5
